B1: GAGE1 (parent)
chain: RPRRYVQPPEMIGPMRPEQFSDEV

# Variants of: B1
# ASSAY_COMMENT: protein stability index of a GFP-peptide fusion (GPS, HEK-293T) (PSI 1-6); higher = more stable;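 also: lentivirally expressed fusions sorted by FACS into six bins by GFP to DsRed ratio, PSI derived from sequencing read proportions per bin multiplied by bin number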
# CONDITION_SET: c terminus: a fixed tail appended
PARAMETER: protein stability index
Respond using a number only.

Example cases with answers are listed next.
RPRRYVQPPESIGPMRPEQFSDEV [M11S] : 3.54
RPRRYVQPPEFIGPMRPEQFSDEV [M11F] : 4.05
RPRRYVQPPEMIGPMRPEQFKDEV [S21K] : 4
RLRRYVQPPEMIGPMRPEQFSDEV [P2L] : 2.99
RPRRYVQPPNMIGPMRPEQFSDEV [E10N] : 3.97

Lookup: Complete the entry with protein stability index for RPRRYVQPPEMIGPMRPEQKSDEV [F20K]
Found: 4.92

Lookup: Consider the variant DPRRYVQPPEMIGPMRPEQFSDEV [R1D] and give its recorded protein stability index.
Found: 4.33

Lookup: Note protein stability index for the variant shown: RPRRYKQPPEMIGPMRPEQFSDEV [V6K]
Found: 3.83

Lookup: Kindly indicate its recorded protein stability index. Item: RPRRYVQPPEMIGEMRPEQFSDEV [P14E]
Found: 4.41

Lookup: Determine its reported protein stability index: RPRRYVQPPEMIGPMRPEQFHDEV [S21H]
Found: 3.55

These data points were gathered from the supplement of paper PMC10567573.
